# SUBJECT OF TEST: T1, human GITR-His (human, UniProt Q9Y5U5 26-161)
# T1 construct: Bought from Acro biosystems; also called GITR-His (Acro biosystems); antigen GITR-His
# T1 sequence: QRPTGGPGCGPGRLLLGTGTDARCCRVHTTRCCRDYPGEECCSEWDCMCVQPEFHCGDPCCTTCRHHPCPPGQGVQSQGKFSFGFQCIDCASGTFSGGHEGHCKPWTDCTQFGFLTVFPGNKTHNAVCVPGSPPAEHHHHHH
# METHOD SUMMARY: PE-ELISA, crude nanobody on coated GITR-His, anti-HA detection
OBSERVED PROPERTY: Sample OD (+)

{"columns": ["BINDER", "Sample OD (+)"],
 "data": [
  ["Nb-02 (VHH, Tested as crude extract from E. coli (osmotic shock)) VHH: QVQLQESGGGSVQAGGSLRLSCAASRDTYTRYFMGWFRQTPGKEGEGVAVLLPGGDYTFYADSVKGRFTITQDSAKNTVYLQMNSLKPEDTAMYYCAADVTVGSRWSQASNYNYWGQGTQVTVSS", "1.43 OD (405 nm)"],
  ["Nb-18 (VHH, Tested as crude extract from E. coli (osmotic shock)) VHH: QVQLQESGGGSVQTGGSLRLSCAASGLTSTTKYMGWFRQAPGKEREGVAGIYISSGATYYDDSVKGRFTISQDNAKNTVYLHINSLEPDDTAMYYCAASVLSVFRPLSSNQYHYWGQGTQVTVSS", "1.01 OD (405 nm)"],
  ["Nb-14 (VHH, Tested as crude extract from E. coli (osmotic shock)) VHH: QVQLQEFGGGSVQAGGSLRLSCVASGFTFSNYCMGWFRQDPGKEREAVARIFVDGSTRYADAVKGRFTISKDNAKNTLYVQINSLKPEDTAMYYCTTPFPWTLCVDGPGAYKYWGQGTQVTVSS", "0.46 OD (405 nm)"],
  ["Nb-21 (VHH, Tested as crude extract from E. coli (osmotic shock)) VHH: QVQLQESGGGSVQAGGSLRLSCRTSGYTNNLKSMAWFRQAPGKEREAVASIHNNGGPTYDYYAESVKGRFAISQDNAKNTLYLQMSSAKPEDTAVYYCAADNRFLGSGSWRLPSLYNYWGQGTQVTVSS", "0.522 OD (405 nm)"],
  ["Nb-17 (VHH, Tested as crude extract from E. coli (osmotic shock)) VHH: QVQLQESGGGSAQAGGSLRLSCAASRYTSSSNAMGWFRQAPGKQREWVAGSDTGAGITCNAASVKGRFTISQDVAKNTVYLQMNSLKPEDTAVYYCAADWFRGAFCSGDADFRYWGQGTQVTVSS", "1.04 OD (405 nm)"]
]}

For the binder Nb-12 (VHH, Tested as crude extract from E. coli (osmotic shock)) VHH: QVQLQESGGGSVQAGGSLRLSCAASRDTYTRYFMGWFRQTPGKEPEGVAVLLPGGAYTFYADSVKGRFTITQDSAKNTVYLQMNSLKPEDTAMYYCAADVTVGSRWSQASNYNYWGQGTQVTVSS , what Sample OD (+) is on record?
0.444 OD (405 nm)

For the binder Nb-03 (VHH, Tested as crude extract from E. coli (osmotic shock)) VHH: QVQLQESGGGSVQAGGSLRLSCAASGYTYSGYCMGWFRQAPGKEHEGVASIVSGLGRPYYADSVKGRFTISQDNAKNTVYLQMNSLKPEDTAMYYCAAEWATKLCSEIPATEWDYWGQGTQVTVSS , what Sample OD (+) is on record?
0.786 OD (405 nm)

For the binder Nb-11 (VHH, Tested as crude extract from E. coli (osmotic shock)) VHH: QVQLQESGGGSVQTGGSLRLSCTASGFTFDAADMGWYRQAPGNECELVSIISSDGSTYYADSVKGRFTISQDNAKNTVYLQMNSLKPEDTAVYYCAAPRVGVGWVRPCDYEYNYWGQGTQVTVSS , what Sample OD (+) is on record?
0.552 OD (405 nm)
